meta.source: paper PMC7877830

# Type: in vivo, human
# Run Conditions: human, plasma, oral, AUC0–48, geometric mean (mean, %CV); GLE/PIB 300/120 mg Formulation C
Assay Metric: AUC(0-t) (ng·h/mL)

[P] COC(=O)N[C@H](C(=O)N1CCC[C@H]1c1nc2cc([C@H]3CC[C@H](c4cc5nc([C@@H]6CCCN6C(=O)[C@@H](NC(=O)OC)[C@@H](C)OC)[nH]c5cc4F)N3c3cc(F)c(N4CCC(c5ccc(F)cc5)CC4)c(F)c3)c(F)cc2[nH]1)[C@@H](C)OC
[Q] CC(C)(C)[C@@H]1NC(=O)O[C@@H]2CCC[C@H]2OC/C=C/C(F)(F)c2nc3ccccc3nc2O[C@@H]2C[C@@H](C(=O)N[C@]3(C(=O)NS(=O)(=O)C4(C)CC4)C[C@H]3C(F)F)N(C2)C1=O
Larger number for AUC(0-t): P , or Q ? Lab log: write the label of the selected item as the result. Q

* * *

Some compounds, each annotated with its measured Cmax.
# Assay type: in vivo, human
# Run Conditions: human, plasma, oral, Cmax, geometric mean (mean, %CV); single dose GLE/PIB 300/120 mg Formulation C (reference), fasting, healthy subjects
Answer format: numeric, ng/mL implied, no suffix.

CC(C)(C)[C@@H]1NC(=O)O[C@@H]2CCC[C@H]2OC/C=C/C(F)(F)c2nc3ccccc3nc2O[C@@H]2C[C@@H](C(=O)N[C@]3(C(=O)NS(=O)(=O)C4(C)CC4)C[C@H]3C(F)F)N(C2)C1=O [GLE, glecaprevir] :: 444

# context switch: different compound, same Cmax
What Cmax value was documented for this compound, COC(=O)N[C@H](C(=O)N1CCC[C@H]1c1nc2cc([C@H]3CC[C@H](c4cc5nc([C@@H]6CCCN6C(=O)[C@@H](NC(=O)OC)[C@@H](C)OC)[nH]c5cc4F)N3c3cc(F)c(N4CCC(c5ccc(F)cc5)CC4)c(F)c3)c(F)cc2[nH]1)[C@@H](C)OC [PIB, pibrentasvir] ? 163

* * *

# Type: in vivo, human
# Run Conditions: human, plasma, oral, AUC0–16, geometric mean (mean, %CV); GLE/PIB 300/120 mg Formulation B
Assay Metric: AUC(0-t) (ng·h/mL)

[a] CC(C)(C)[C@@H]1NC(=O)O[C@@H]2CCC[C@H]2OC/C=C/C(F)(F)c2nc3ccccc3nc2O[C@@H]2C[C@@H](C(=O)N[C@]3(C(=O)NS(=O)(=O)C4(C)CC4)C[C@H]3C(F)F)N(C2)C1=O
[b] COC(=O)N[C@H](C(=O)N1CCC[C@H]1c1nc2cc([C@H]3CC[C@H](c4cc5nc([C@@H]6CCCN6C(=O)[C@@H](NC(=O)OC)[C@@H](C)OC)[nH]c5cc4F)N3c3cc(F)c(N4CCC(c5ccc(F)cc5)CC4)c(F)c3)c(F)cc2[nH]1)[C@@H](C)OC
Compare the recorded AUC(0-t) of a and b ; state which is larger. // caller expects the label of the chosen entry a
(a: 1330 ng·h/mL, b: 514 ng·h/mL)

* * *

# Assay type: in vivo, human
# Run Conditions: human, plasma, oral, AUC0–16, geometric mean (mean, %CV); GLE/PIB 300/120 mg Formulation C
Assay Metric: AUC(0-t) (ng·h/mL)

[I] CC(C)(C)[C@@H]1NC(=O)O[C@@H]2CCC[C@H]2OC/C=C/C(F)(F)c2nc3ccccc3nc2O[C@@H]2C[C@@H](C(=O)N[C@]3(C(=O)NS(=O)(=O)C4(C)CC4)C[C@H]3C(F)F)N(C2)C1=O
[II] COC(=O)N[C@H](C(=O)N1CCC[C@H]1c1nc2cc([C@H]3CC[C@H](c4cc5nc([C@@H]6CCCN6C(=O)[C@@H](NC(=O)OC)[C@@H](C)OC)[nH]c5cc4F)N3c3cc(F)c(N4CCC(c5ccc(F)cc5)CC4)c(F)c3)c(F)cc2[nH]1)[C@@H](C)OC
Which value of AUC(0-t) is greater, the one for I or the one for II ? Choose, then provide that item's label. I
(I: 1800 ng·h/mL, II: 977 ng·h/mL)
